This collection of values is drawn from patent US20260132218A1.

Task for the reader: assign each of the following binders its reported IC50.
- Assay target: T1, human recombinant His-tagged HER2 extracellular domain (human, UniProt P04626 23-652)
- T1 construct: extracellular domain; also called HER2-ECD; HER-ECD
- Assay overview: competition EIA on coated HER2, competitor trastuzumab-biotin; given as ED50
- Description: Method: 96 well high binding EIA plates were coated with 10 ng of HER2 protein overnight at 4 C. […] After washing, colorimetric substrate 3,3′,5,5′-tetramethylbenzidine (TMB) was added and absorbance at 620 nm was determined after 10 minutes.
Hey, just the number and the unit after it is fine.

* 12E3 (antibody, IgG1, V domains shown, also called AGRD017-12E3; fully human 12E3 antibody) VH: EVQLVGSGGGLVQPGRSLRLSCAASGFTFDDYAMHWVRQAPGKGLEWVSGISWNGGTLGYAGSVKGRFTISRDNAKNSLYLQMNSLRAEDTALYYCAKDTGSYSHWYFDLWGRGTLVTVSS VL: EIVMTQSPATLSVSPGERATLSCRASQSVRSNLAWYQQKPGQAPRLLIYGASTRATGIPARCSGSGSGTEFTLTISSLQSEDFAVYYCQQYNNWPTFGQGTKVEIK | 0.04 µg/mL

Consider the record given below.
Consider the binder shown here: 11D7 (antibody, V domains shown, Hybridoma antibody from TC-mAb mice; also called AGRD017-11D7; fully human 11D7 antibody) VH: EVQLVESGGGLVQPGRSLRLSCAASGFTFDDYAMHWVRQAPGKGLEWVSGIAWNGGILGYADSVKGRFTISRDNAKNSLYLQMNSLRAEDTALYYCAKDTGSYSHWYFDLWGRGTLVTVSS VL: EIVMTQSPATLSVSPGERATLSCRASQSVRSNLAWYQQKPGQAPRLLIYGASTRATGIPARFSGSGSGTEFTLTISSLQSEDFAVYCCQQYNNWPTFGQGTKVEIK What is its recorded IC50?
0.06 µg/mL
